Target: T1, cyBCMA (cynomolgus, UniProt A0A2K5UD97 1-53)
T1 construct: Soluble analyte in SPR; construct not described; also called cyno BCMA
T1 sequence (A0A2K5UD97 entry or part of it): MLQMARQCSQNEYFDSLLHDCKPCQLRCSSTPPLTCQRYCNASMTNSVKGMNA
Assay: SPR, immobilised IgG, 37° C
Categorized via T½: range A (below 2 min), range B (2 min to below 3 min), range C (3 min or more)

[
  {
    "BINDER": "L3.PY/L1.AH/H3.YA (antibody, V domains shown, IgG in the assay) VH: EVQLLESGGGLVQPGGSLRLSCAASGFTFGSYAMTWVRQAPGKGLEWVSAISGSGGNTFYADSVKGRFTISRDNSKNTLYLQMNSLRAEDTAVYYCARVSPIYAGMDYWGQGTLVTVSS VL: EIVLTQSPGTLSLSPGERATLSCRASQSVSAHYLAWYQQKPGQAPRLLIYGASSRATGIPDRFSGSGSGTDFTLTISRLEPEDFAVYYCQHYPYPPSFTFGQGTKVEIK",
    "CLASS": "range B"
  },
  {
    "BINDER": "L3.PY/L3.KY/P6E01 (antibody, V domains shown, IgG in the assay) VH: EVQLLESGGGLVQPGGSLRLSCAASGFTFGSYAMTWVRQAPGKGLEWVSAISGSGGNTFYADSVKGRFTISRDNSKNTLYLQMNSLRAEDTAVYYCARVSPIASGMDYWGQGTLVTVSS VL: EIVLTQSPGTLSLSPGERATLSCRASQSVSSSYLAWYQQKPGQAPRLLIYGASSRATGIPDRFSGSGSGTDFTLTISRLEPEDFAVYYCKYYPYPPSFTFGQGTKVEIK",
    "CLASS": "range B"
  },
  {
    "BINDER": "L3.PY/H3.TAQ (antibody, V domains shown, IgG in the assay; also called P6E01 L3PY/H3TAQ) VH: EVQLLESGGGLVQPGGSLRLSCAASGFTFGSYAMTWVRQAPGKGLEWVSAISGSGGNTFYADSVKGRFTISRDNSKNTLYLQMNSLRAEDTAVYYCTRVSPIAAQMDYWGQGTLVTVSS VL: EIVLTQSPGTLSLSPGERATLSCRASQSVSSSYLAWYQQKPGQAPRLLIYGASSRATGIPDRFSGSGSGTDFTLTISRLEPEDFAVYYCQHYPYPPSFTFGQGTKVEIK",
    "CLASS": "range B"
  },
  {
    "BINDER": "L3.PY/L1.PS/H3.YA (antibody, V domains shown, IgG in the assay) VH: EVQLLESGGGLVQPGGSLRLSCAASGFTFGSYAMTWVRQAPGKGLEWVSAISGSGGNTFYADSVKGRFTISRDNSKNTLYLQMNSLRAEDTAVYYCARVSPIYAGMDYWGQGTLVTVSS VL: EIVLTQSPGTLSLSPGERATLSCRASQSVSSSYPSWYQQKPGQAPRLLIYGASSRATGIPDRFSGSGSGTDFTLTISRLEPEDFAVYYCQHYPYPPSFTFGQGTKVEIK",
    "CLASS": "range A"
  },
  {
    "BINDER": "L3.PY/L1.PH/P6E01 (antibody, V domains shown, IgG in the assay) VH: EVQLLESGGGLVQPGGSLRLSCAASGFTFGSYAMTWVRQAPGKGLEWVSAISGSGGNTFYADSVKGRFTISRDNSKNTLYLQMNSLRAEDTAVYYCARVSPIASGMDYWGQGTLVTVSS VL: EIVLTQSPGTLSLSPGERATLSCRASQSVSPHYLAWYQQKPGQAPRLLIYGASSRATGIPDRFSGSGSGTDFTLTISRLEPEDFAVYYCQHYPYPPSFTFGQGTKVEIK",
    "CLASS": "range A"
  },
  {
    "BINDER": "L3.PY/L1.PS/H2.QL (antibody, V domains shown, IgG in the assay) VH: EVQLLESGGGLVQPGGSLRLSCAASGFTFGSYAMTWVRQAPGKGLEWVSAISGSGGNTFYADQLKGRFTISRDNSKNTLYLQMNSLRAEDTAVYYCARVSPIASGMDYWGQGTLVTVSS VL: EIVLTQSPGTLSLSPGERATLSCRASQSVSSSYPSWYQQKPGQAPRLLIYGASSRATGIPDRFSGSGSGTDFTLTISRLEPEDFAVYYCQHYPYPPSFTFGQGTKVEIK",
    "CLASS": "range C"
  },
  {
    "BINDER": "L3.PY/L1.AH/H3.AQ (antibody, V domains shown, IgG in the assay) VH: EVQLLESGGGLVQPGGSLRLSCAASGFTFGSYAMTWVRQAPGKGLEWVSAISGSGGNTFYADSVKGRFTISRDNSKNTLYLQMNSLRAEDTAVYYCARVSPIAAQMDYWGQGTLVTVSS VL: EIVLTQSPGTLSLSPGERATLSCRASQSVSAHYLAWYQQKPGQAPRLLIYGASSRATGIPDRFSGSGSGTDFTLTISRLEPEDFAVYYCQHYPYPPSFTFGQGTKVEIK",
    "CLASS": "range B"
  },
  {
    "BINDER": "L3.PY/L1.AH/H2.LT (antibody, V domains shown, IgG in the assay) VH: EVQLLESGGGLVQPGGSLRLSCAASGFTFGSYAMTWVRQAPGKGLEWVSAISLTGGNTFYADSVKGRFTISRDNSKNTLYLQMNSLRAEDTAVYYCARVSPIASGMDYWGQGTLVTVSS VL: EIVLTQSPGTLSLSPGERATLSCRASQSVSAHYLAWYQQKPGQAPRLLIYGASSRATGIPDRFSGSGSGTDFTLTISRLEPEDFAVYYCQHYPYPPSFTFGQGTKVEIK",
    "CLASS": "range C"
  }
]

Would you kindly look at the next entry?
Problem: Hi, small favor: classify L3.PY/L1.PS/H2.LT (antibody, V domains shown, IgG in the assay) VH: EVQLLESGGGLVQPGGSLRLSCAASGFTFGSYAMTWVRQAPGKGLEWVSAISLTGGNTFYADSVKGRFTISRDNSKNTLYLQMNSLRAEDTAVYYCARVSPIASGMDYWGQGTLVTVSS VL: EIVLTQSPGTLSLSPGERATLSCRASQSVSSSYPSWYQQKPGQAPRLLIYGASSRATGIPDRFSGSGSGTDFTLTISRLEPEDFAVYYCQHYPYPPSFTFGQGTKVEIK by its T½ when you get a moment.
Solution: range B
